Target: His6-TEV-PPARγ-(234-505) (Homo sapiens, UniProt P37231)
Construct: The His6-TEV-PPARγ-(234-505) protein for assay was expressed and purified; TEV cleavage site (N); made in house
Sequence (P37231 234-505): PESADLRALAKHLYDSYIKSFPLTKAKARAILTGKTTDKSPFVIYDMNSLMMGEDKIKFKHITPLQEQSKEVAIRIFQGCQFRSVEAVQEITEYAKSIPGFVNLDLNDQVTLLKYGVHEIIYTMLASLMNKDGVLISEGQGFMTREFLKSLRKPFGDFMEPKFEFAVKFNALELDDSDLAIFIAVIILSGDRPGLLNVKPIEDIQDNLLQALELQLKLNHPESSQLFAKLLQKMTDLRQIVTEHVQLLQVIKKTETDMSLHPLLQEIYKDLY
Assay: TR-FRET Assay to Measure Co-R Peptide Recruitment to PPARγ
Type: biochemical
Settings: Co-R peptide (SMRT-ID2) recruitment; top final concentration 20 μM; read-out: TR-FRET i-Ag; AC50
Procedure: TR-FRET Assay to Measure Co—R Peptide Recruitment to PPARγ The 2× detection solution contained anti-6×His-Terbium antibody (CisBio) and FITC labeled Co—R peptide (SMRT-ID2 from New England Peptide) at final concentrations of 5 and 200 nM respectively. In these assay plates, the positive control in column 24 contained 500 nM (final) T0070907 and the negative control in column 23 contained an identical volume of DMSO. […] Experiments were performed in triplicate and analyzed in GraphPad Prism 7.
observed property: AC50 (nM)
Give bare numbers, in nM.

1) Cc1cc(-c2cc(C(=O)N3CC[C@H](C(=O)NCc4ncccc4C4CC4)CC34CC4)[nH]n2)c(F)cn1 (racemic) [Example 506] | 10.3
2) COc1cc(-c2cc(C(=O)N3CCC(C(=O)N[C@H]4CC[C@@H](C)CC4)CC3)n[nH]2)ccn1 [Example 107] | 342
3) COc1cc(-c2cc(C(=O)N3CC[C@H](C(=O)NC4C5CN(C6COC6)CC54)CC34CC4)n[nH]2)c(F)cn1 (stereo partly shown) [Example 429] | 347
4) COc1cc(-c2cc(C(=O)N3CC[C@H](C(=O)Nc4ccc5c(c4)COB5O)CC34CC4)[nH]n2)c(F)cn1 [Example 523] | 5.3

Record AC50 per entry; entries follow.
1. COc1cc(-c2cc(C(=O)N3CC[C@H](C(=O)NCc4ncc(F)cc4N4CCN(C)CC4)CC34CC4)n[nH]2)c(F)cn1 [Example 404]
2. CCO[C@]1(C(F)(F)F)CC[C@@H](NC(=O)[C@@H]2CCN(C(=O)c3cc(-c4cc(OC)ncc4F)[nH]n3)C3(CC3)C2)CC1 (single isomer, unassigned) [Example 312-A]
3. COc1cc(-c2cc(C(=O)N3CC[C@H](C(=O)NCC45CC(C(F)(F)F)(C4)C5)CC34CC4)[nH]n2)c(F)cn1 [Example 515]
4. COc1cc(-c2cc(C(=O)N3CC[C@H](C(=O)NCC4(O)COC4)CC34CC4)[nH]n2)c(F)cn1 [Example 463]
5. COc1cc(-c2cc(C(=O)N3CC[C@H](C(=O)NC4CCN(c5cnc(C)nc5)C4)CC34CC4)n[nH]2)c(F)cn1 (single isomer, unassigned) [Example 453-B]

Ans:
[164, 172, 5, 180, 8.2]

Record AC50 per entry; entries follow.
1. COc1cc(-c2cc(C(=O)N3CCC(C(=O)Nc4cnn(C(C)C)c4)CC3)n[nH]2)c(Cl)cn1 [Example 205]
2. COc1cc(-c2cc(C(=O)N3CCC(C(=O)NC4C(=O)NCc5ccccc54)CC3)n[nH]2)c(Cl)cn1 (racemic) [Example 244]
3. COc1cc(-c2cc(C(=O)N3CCC(C(=O)NCc4cc(F)ccc4Cl)CC3)n[nH]2)c(Cl)cn1 [Example 125]
4. COc1cc(-c2cc(C(=O)N3CC[C@H](C(=O)N[C@H]4CC[C@@](OC[C@H](C)O)(C(F)(F)F)CC4)CC34CC4)n[nH]2)c(F)cn1 [Example 353]

Ans:
1. 912
2. 605
3. 24.6
4. 6.6
